Reported IC20 values follow for various molecules
Test system: HeLa
Assay: Inhibition of metabolic activity in HeLa cells assessed as MTT reduction after 48 hrs
Assay type: functional, cell-based
Conditions: Homo sapiens
Your answer should be a plain number; it is taken to be in µg/mL.

- Smiles structure: "O=C(N[C@H](CO)[C@H](O)c1ccc([N+](=O)[O-])cc1)C(Cl)Cl"
  Result: 100
- Smiles structure: "CC[C@H]1OC(=O)[C@H](C)[C@@H](O[C@H]2C[C@@](C)(OC)[C@@H](O)[C@H](C)O2)[C@H](C)[C@@H](O[C@@H]2O[C@H](C)C[C@H](N(C)C)[C@H]2O)[C@](C)(O)C[C@@H](C)C(=O)[C@H](C)[C@@H](O)[C@]1(C)O"
  Result: 110
- Smiles structure: "CCC[C@@H]1C[C@@H](C(=O)N[C@@H]([C@H]2O[C@H](SC)[C@H](O)[C@@H](O)[C@H]2O)[C@H](C)Cl)N(C)C1"
  Result: 80
- Smiles structure: "CC[C@H]1OC(=O)[C@H](C)[C@@H](O[C@H]2C[C@@](C)(OC)[C@@H](O)[C@H](C)O2)[C@H](C)[C@@H](O[C@@H]2O[C@H](C)C[C@H](N(C)C)[C@H]2O)[C@](C)(O)C[C@@H](C)/C(=N\\OCOCCOC)[C@H](C)[C@@H](O)[C@]1(C)O"
  Result: 30

Item: `CC(=O)NC[C@H]1CN(c2ccc(N3CCOCC3)c(F)c2)C(=O)O1` | IC20: 300

Item: `CC[C@H]1OC(=O)[C@H](C)[C@@H](O[C@H]2C[C@@](C)(OC)[C@@H](O)[C@H](C)O2)[C@H](C)[C@@H](O[C@@H]2O[C@H](C)C[C@H](N(C)C)[C@H]2O)[C@](C)(O)C[C@@H](C)CN(C)[C@H](C)[C@@H](O)[C@]1(C)O` | IC20: 50

Item: `COc1c(N2C[C@@H]3CCCN[C@@H]3C2)c(F)cc2c(=O)c(C(=O)O)cn(C3CC3)c12` | IC20: 40

Item: `O=C(O)c1cn(C2CC2)c2cc(N3CCNCC3)c(F)cc2c1=O` | IC20: 70

###

Test: Antiproliferative effect against primary human osteoblasts assessed as BrdU incorporation into DNA after 48 hrs
Assay type: functional, cell-based
Conditions: Osteoblast
Reported IC20 values follow for various molecules
Your answer should be a plain number; it is taken to be in µg/mL.

Would you please look over these solved cases?
- Smiles structure: "CC[C@H]1OC(=O)[C@H](C)[C@@H](O[C@H]2C[C@@](C)(OC)[C@@H](O)[C@H](C)O2)[C@H](C)[C@@H](O[C@@H]2O[C@H](C)C[C@H](N(C)C)[C@H]2O)[C@](C)(O)C[C@@H](C)CN(C)[C@H](C)[C@@H](O)[C@]1(C)O"
  Measurement type: "IC20"
  Result: 20
- Smiles structure: "CO[C@H]1/C=C/O[C@@]2(C)Oc3c(C)c(O)c4c(O)c(c(/C=N/N5CCN(C)CC5)c(O)c4c3C2=O)NC(=O)/C(C)=C\\C=C\\[C@H](C)[C@H](O)[C@@H](C)[C@@H](O)[C@@H](C)[C@H](OC(C)=O)[C@@H]1C"
  Measurement type: "IC20"
  Result: 30

Item: `CC[C@H]1OC(=O)[C@H](C)[C@@H](O[C@H]2C[C@@](C)(OC)[C@@H](O)[C@H](C)O2)[C@H](C)[C@@H](O[C@@H]2O[C@H](C)C[C@H](N(C)C)[C@H]2O)[C@](C)(O)C[C@@H](C)/C(=N\OCOCCOC)[C@H](C)[C@@H](O)[C@]1(C)O` | IC20: 20

Item: `Cc1nnc(SCC2=C(C(=O)O)N3C(=O)[C@@H](NC(=O)Cn4cnnn4)[C@H]3SC2)s1` | IC20: 380

Item: `CC(=O)NC[C@H]1CN(c2ccc(N3CCOCC3)c(F)c2)C(=O)O1` | IC20: 240

Item: `CC[C@H]1OC(=O)[C@H](C)[C@@H](O[C@H]2C[C@@](C)(OC)[C@@H](O)[C@H](C)O2)[C@H](C)[C@@H](O[C@@H]2O[C@H](C)C[C@H](N(C)C)[C@H]2O)[C@](C)(O)C[C@@H](C)C(=O)[C@H](C)[C@@H](O)[C@]1(C)O` | IC20: 30

Item: `COc1c(N2C[C@@H]3CCCN[C@@H]3C2)c(F)cc2c(=O)c(C(=O)O)cn(C3CC3)c12` | IC20: 80

Item: `CCC[C@@H]1C[C@@H](C(=O)N[C@@H]([C@H]2O[C@H](SC)[C@H](O)[C@@H](O)[C@H]2O)[C@H](C)Cl)N(C)C1` | IC20: 40

Item: `CN(C)[C@@H]1C(O)=C(C(N)=O)C(=O)[C@@]2(O)C(O)=C3C(=O)c4c(O)cccc4[C@@](C)(O)[C@H]3C[C@@H]12` | IC20: 60

Item: `O=C(N[C@H](CO)[C@H](O)c1ccc([N+](=O)[O-])cc1)C(Cl)Cl` | IC20: 60

Item: `O=C(O)c1cn(C2CC2)c2cc(N3CCNCC3)c(F)cc2c1=O` | IC20: 70

###

Test system: HeLa
Assay: Antiproliferative effect against HeLa cells after 48 hrs
Assay type: functional, cell-based
Conditions: Homo sapiens
IC20 strictly under 200 µg/mL means Condition met; at 200 µg/mL or over means Condition not met.

The examples below pair each entry with its known result.
- Smiles structure: "O=C(N[C@H](CO)[C@H](O)c1ccc([N+](=O)[O-])cc1)C(Cl)Cl"
  Target or system: "HeLa"
  Group: "Condition not met"
- Smiles structure: "CC[C@H]1OC(=O)[C@H](C)[C@@H](O[C@H]2C[C@@](C)(OC)[C@@H](O)[C@H](C)O2)[C@H](C)[C@@H](O[C@@H]2O[C@H](C)C[C@H](N(C)C)[C@H]2O)[C@](C)(O)C[C@@H](C)/C(=N\\OCOCCOC)[C@H](C)[C@@H](O)[C@]1(C)O"
  Target or system: "HeLa"
  Group: "Condition met"
- Smiles structure: "CC[C@H]1OC(=O)[C@H](C)[C@@H](O[C@H]2C[C@@](C)(OC)[C@@H](O)[C@H](C)O2)[C@H](C)[C@@H](O[C@@H]2O[C@H](C)C[C@H](N(C)C)[C@H]2O)[C@](C)(O)C[C@@H](C)CN(C)[C@H](C)[C@@H](O)[C@]1(C)O"
  Target or system: "HeLa"
  Group: "Condition met"

[in] Please determine if `CC[C@H]1OC(=O)[C@H](C)[C@@H](O[C@H]2C[C@@](C)(OC)[C@@H](O)[C@H](C)O2)[C@H](C)[C@@H](O[C@@H]2O[C@H](C)C[C@H](N(C)C)[C@H]2O)[C@](C)(O)C[C@@H](C)C(=O)[C@H](C)[C@@H](O)[C@]1(C)O` is below 200 µg/mL in terms of IC20.
[out] Condition not met

[in] Please determine if `COc1c(N2C[C@@H]3CCCN[C@@H]3C2)c(F)cc2c(=O)c(C(=O)O)cn(C3CC3)c12` is below 200 µg/mL in terms of IC20.
[out] Condition met

[in] Please determine if `Cc1nnc(SCC2=C(C(=O)O)N3C(=O)[C@@H](NC(=O)Cn4cnnn4)[C@H]3SC2)s1` is below 200 µg/mL in terms of IC20.
[out] Condition not met

[in] Please determine if `CCC[C@@H]1C[C@@H](C(=O)N[C@@H]([C@H]2O[C@H](SC)[C@H](O)[C@@H](O)[C@H]2O)[C@H](C)Cl)N(C)C1` is below 200 µg/mL in terms of IC20.
[out] Condition not met

[in] Please determine if `CO[C@H]1/C=C/O[C@@]2(C)Oc3c(C)c(O)c4c(O)c(c(/C=N/N5CCN(C)CC5)c(O)c4c3C2=O)NC(=O)/C(C)=C\C=C\[C@H](C)[C@H](O)[C@@H](C)[C@@H](O)[C@@H](C)[C@H](OC(C)=O)[C@@H]1C` is below 200 µg/mL in terms of IC20.
[out] Condition met

[in] Please determine if `O=C(O)c1cn(C2CC2)c2cc(N3CCNCC3)c(F)cc2c1=O` is below 200 µg/mL in terms of IC20.
[out] Condition met

###

System: HeLa
Test: Antiproliferative effect against HeLa cells after 48 hrs
Type: functional, cell-based
Details: Homo sapiens
Measurement type: IC50

Would you please look over these solved cases?
- Smiles structure: "CC[C@H]1OC(=O)[C@H](C)[C@@H](O[C@H]2C[C@@](C)(OC)[C@@H](O)[C@H](C)O2)[C@H](C)[C@@H](O[C@@H]2O[C@H](C)C[C@H](N(C)C)[C@H]2O)[C@](C)(O)C[C@@H](C)CN(C)[C@H](C)[C@@H](O)[C@]1(C)O"
  Target or system: "HeLa"
  Result: "240 µg/mL"
- Smiles structure: "CN(C)[C@@H]1C(O)=C(C(N)=O)C(=O)[C@@]2(O)C(O)=C3C(=O)c4c(O)cccc4[C@@](C)(O)[C@H]3C[C@@H]12"
  Target or system: "HeLa"
  Result: "> 400 µg/mL"
- Smiles structure: "CC[C@H]1OC(=O)[C@H](C)[C@@H](O[C@H]2C[C@@](C)(OC)[C@@H](O)[C@H](C)O2)[C@H](C)[C@@H](O[C@@H]2O[C@H](C)C[C@H](N(C)C)[C@H]2O)[C@](C)(O)C[C@@H](C)C(=O)[C@H](C)[C@@H](O)[C@]1(C)O"
  Target or system: "HeLa"
  Result: "> 400 µg/mL"
- Smiles structure: "O=C(N[C@H](CO)[C@H](O)c1ccc([N+](=O)[O-])cc1)C(Cl)Cl"
  Target or system: "HeLa"
  Result: "> 400 µg/mL"

Now, please, on to the next molecule.
The observed IC50 for `COc1c(N2C[C@@H]3CCCN[C@@H]3C2)c(F)cc2c(=O)c(C(=O)O)cn(C3CC3)c12` when tested with HeLa stands at 320 µg/mL

The values you see were collected from ChEMBL document CHEMBL1142165.
